- Assay Protocol: physchem
- Run Parameters: octanol/water
- Description: Partition coefficient (logP)
Endpoint Name: logP

Below: 5 molecules and their reported logP.
| Molecule | Endpoint Name | Test Result |
| --- | --- | --- |
| O=C(CCCC(=O)N1CCCNCCNCCCNCC1)N1CCCNCCNCCCNCC1 | logP | 1.05 |
| Cc1cn(C2CC(N=[N+]=[N-])C(COC(=O)CCCCN3CCCN(C(=O)c4ccc(C(=O)N5CCCN(C(=O)OC(C)(C)C)CCN(C(=O)OC(C)(C)C)CCCN(C(=O)OC(C)(C)C)CC5)cc4)CCN(C(=O)OC(C)(C)C)CCCN(C(=O)OC(C)(C)C)CC3)O2)c(=O)[nH]c1=O (centres undefined) | logP | 2.69 |
| Cc1cn(C2CC(N=[N+]=[N-])C(COC(=O)CCCCN3CCCN(Cc4ccc(CN5CCCN(C(=O)OC(C)(C)C)CCN(C(=O)OC(C)(C)C)CCCN(C(=O)OC(C)(C)C)CC5)cc4)CCN(C(=O)OC(C)(C)C)CCCN(C(=O)OC(C)(C)C)CC3)O2)c(=O)[nH]c1=O (centres undefined) | logP | 5.7 |
| Cc1cn(C2CC(N=[N+]=[N-])C(COC(=O)CCCCN3CCCNCCNCCCNCC3)O2)c(=O)[nH]c1=O (centres undefined) | logP | -0.21 |
| Cc1cn(C2CC(N=[N+]=[N-])C(COC(=O)CCCC(=O)N3CCCNCCNCCCNCC3)O2)c(=O)[nH]c1=O (centres undefined) | logP | 0.14 |

a: CC(C)(C)OC(=O)N1CCCN(C(=O)OC(C)(C)C)CCN(C(=O)c2ccc(C(=O)N3CCCN(C(=O)OC(C)(C)C)CCN(C(=O)OC(C)(C)C)CCCN(C(=O)OC(C)(C)C)CC3)cc2)CCCN(C(=O)OC(C)(C)C)CC1
b: Cc1cn(C2CC(N=[N+]=[N-])C(COC(=O)CCCCN3CCCN(C(=O)c4ccc(C(=O)N5CCCNCCNCCCNCC5)cc4)CCNCCCNCC3)O2)c(=O)[nH]c1=O (centres undefined)
// task: argmin of logP over [ a , b ] Pick one; state its label.
b
(b: -1.35, a: 3.46)

1: Cc1cn(C2CC(N=[N+]=[N-])C(COC(=O)CCCC(=O)N3CCCN(C(=O)OC(C)(C)C)CCN(C(=O)OC(C)(C)C)CCCN(C(=O)OC(C)(C)C)CC3)O2)c(=O)[nH]c1=O (centres undefined)
2: CC(C)(C)OC(=O)N1CCCN(C(=O)OC(C)(C)C)CCN(C(=O)OC(C)(C)C)CCCN(Cc2ccc(CN3CCCN(C(=O)OC(C)(C)C)CCN(C(=O)OC(C)(C)C)CCCN(C(=O)OC(C)(C)C)CC3)cc2)CC1
3: Cc1cn(C2CC(N=[N+]=[N-])C(COC(=O)CCCCN3CCCN(C(=O)CCCC(=O)N4CCCNCCNCCCNCC4)CCNCCCNCC3)O2)c(=O)[nH]c1=O (centres undefined)
// sort entries: logP, high to low Answer format: the labels, ordered as requested.
2, 1, 3
(2: 6.47, 1: 2.68, 3: 1.81)

A: CC(C)(C)OC(=O)N1CCCN(C(=O)OC(C)(C)C)CCN(C(=O)OC(C)(C)C)CCCN(C(=O)CCCC(=O)N2CCCN(C(=O)OC(C)(C)C)CCN(C(=O)OC(C)(C)C)CCCN(C(=O)OC(C)(C)C)CC2)CC1
B: O=C(c1ccc(C(=O)N2CCCNCCNCCCNCC2)cc1)N1CCCNCCNCCCNCC1
C: Cc1cn(C2CC(N=[N+]=[N-])C(COC(=O)CCCCN3CCCN(Cc4ccc(CN5CCCNCCNCCCNCC5)cc4)CCNCCCNCC3)O2)c(=O)[nH]c1=O (centres undefined)
# ascending order, key=logP In plain terms: list the labels in the order you were asked to.
B, C, A
